Tested on: German cockroach (Blattella germanica)
ASSAY METHOD TEXT: Choice test arena repellency bioassay, adult male German cockroach, 300-second test
Format: in vivo
TEST PARAMETERS: amount used 1% solution; 300-second test
MEASUREMENT KIND: Mean Treated (s)

>>> df
                                   compound  measurement_kind  numeric_value
0  CC(C)=CCc1c2c(c3occ(-c4ccc(O)c(O)c4)c(=O)c3c1O)C=CC(C)(C)O2      Mean Treated            138
1       CCCCCCOC(=O)CCCCC [Hexyl hexanoate]      Mean Treated            142
2  C=CC1(C)CCC(C(C)(C)O)CC1C(=C)C (centres unmarked)      Mean Treated            107
3  c1ccc2ccccc2c1 [Naphthalene, reference compound]      Mean Treated            117
4  CC(C)=CCc1c2c(c3occ(-c4ccc(O)cc4)c(=O)c3c1O)C=CC(C)(C)O2      Mean Treated            103

From: patent US7939091B2
